- Test system: human embryonic kidney (Hek293) cells
- Assay comment: Human cell cytotoxicity assay, HEK293
- Format: cell-based
- Run conditions: HEK293, read-out: HEK293 IC50
Parameter: pIC50
Notebook: values listed as pIC50 are -log10 of the concentration (mol/L).

Request: Specify measured pIC50 for CCN(CC)CCCC(C)Nc1ccnc2cc(Cl)ccc12 (stereo not shown) [Chloroquine] .
Response: 4.56

Measured values drawn from paper PMC8100350 for this set.
